This section presents molecules with their documented IC (total growth inhibition) values.
test system: PANC-1; test: Inhibition of cell growth by colorimetric SRB assay, PANC-1; type: cell-based; conditions: Homo sapiens; PANC-1; 48 hours exposure; total growth inhibition; read-out: TGI
observable: IC (total growth inhibition) (µM)

{"molecule": "C/C=C\\[C@H](C)[C@H]1O[C@@]1(C)[C@@H](O)[C@@H](CO)C(=O)[C@@H](CO)[C@@H](O)CC(=O)CC [3c + 4c]", "observable": "IC (total growth inhibition)", "experimental result": 13.3}
{"molecule": "C/C=C\\[C@H](C)[C@H]1OC1(C)[C@@H](O[Si](C)(C)C(C)(C)C)[C@@H](CO[Si](C)(C)C(C)(C)C)C(=O)[C@H](CO[Si](C)(C)C(C)(C)C)[C@H](CC(=O)CC)O[Si](C)(C)C(C)(C)C (stereo partly drawn) [Compound 19a]", "observable": "IC (total growth inhibition)", "experimental result": 12.1}
{"molecule": "C/C=C\\[C@H](C)[C@H]1OC1(C)[C@@H](O[Si](C)(C)C(C)(C)C)[C@@H](COC(C)=O)C(=O)[C@H](CO)[C@@H](O)CC(=O)CC (stereo partly drawn) [Compound 46]", "observable": "IC (total growth inhibition)", "experimental result": 18.9}
{"molecule": "C/C=C\\[C@H](C)[C@H]1OC1(C)[C@@H](O[Si](C)(C)C(C)(C)C)[C@@H](CO)C(=O)[C@@H](CO)[C@H](O)CC(=O)CC (stereo partly drawn) [31b + 31d]", "observable": "IC (total growth inhibition)", "experimental result": 20.5}
{"molecule": "C/C=C\\[C@H](C)[C@H]1O[C@@]1(C)[C@@H](O)[C@@H](COC(C)=O)C(=O)[C@H](CO)[C@@H](O)CC(=O)CC [Compound 47]", "observable": "IC (total growth inhibition)", "experimental result": 2.38}
{"molecule": "C/C=C\\[C@H](C)[C@H]1OC1(C)[C@@H](O)[C@@H](CO)C(=O)[C@H](CO)[C@H](O)CC(=O)CC (stereo partly drawn) [3b + 4b]", "observable": "IC (total growth inhibition)", "experimental result": 26.8}
